This collection of values is drawn from PubChem BioAssay AID1362.

test-protocol: growth inhibition of WT strain, primary screen, mitochondrial fusion inhibitor project, WT and mutant strains, chemical genetic (AID 1362)
condition-notes: mitochondrial fusion phenotypic screen, mutant strain inhibition; at 10 µM
The campaign covered roughly 190,000 compounds. About 4,000 (2.1%) were called active. What follows is part of a selection rich in actives, with near analogues and random picks from the rest.
// inhibition lookup, one value per entry
result-type: inhibition (%)

{"columns": ["molecule", "result-type", "result-units", "readout-number"],
 "data": [
  ["COC(=O)C1=C(Nc2ccc(C)cc2)C=C(C)C(C(=O)OC)C1c1ccc(F)cc1 (configuration not stated)", "inhibition", "%", -7.13],
  ["COC(=O)Cc1ccc(NC(=S)NCc2ccco2)cc1", "inhibition", "%", 3.2],
  ["O=C(COc1ccc(Cl)cc1)N1CCN(c2cccc(C(F)(F)F)c2)CC1", "inhibition", "%", 27.3],
  ["O=C(CCCn1c(=O)c2sccc2n(CC(=O)NCC2CCCO2)c1=O)NCc1ccco1 (configuration not stated)", "inhibition", "%", 3.2],
  ["CCC(C)(C)NC(=O)CN(C(=O)C(=O)Nc1ccc2c(c1)OCCO2)C(C)(C)CC", "inhibition", "%", 6.56],
  ["CCNC(=S)NNC(=O)C1CCN(Cc2ccccc2)CC1", "inhibition", "%", -10.7],
  ["CCN(CC)CCOC(=O)c1ccc(NC(=O)CNC(=O)c2ccccc2)cc1", "inhibition", "%", 15.8],
  ["CC(C)NC(=S)NN=C1CCCCCCCCCCC1", "inhibition", "%", 53.1],
  ["O=C(COc1ccc(Cl)cc1)N1CCN(S(=O)(=O)c2ccc(Cl)cc2)CC1", "inhibition", "%", -6.77],
  ["CCn1c(SCC(=O)Nc2nc3ccc(OC)cc3s2)nnc1-c1ccoc1C", "inhibition", "%", 9.68],
  ["O=S(=O)(Cc1ccccc1)c1nc2ccccc2n1Cc1ccccn1", "inhibition", "%", 10.5],
  ["O=C(COC(=O)c1ccco1)NCc1ccc(Cl)cc1", "inhibition", "%", -1.13]
]}
